test: Bmi1 luciferase reporter increase in mESCs, primary screen, esBAF inhibitor project, mouse ES cells, Bmi1 luciferase knock-in, single point (AID 602393); conditions: 24 h, at 12.5 µM, 100% = twice the neutral-well signal;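 further: 0% = median of the plate's neutral control wells and 100% = double that signal; a rise in the Bmi1 reporter signal indicates esBAF inhibition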
Among all 350,000 compounds or so, about 7,000 (2%) were called active. No stated cut-off is given here; in the data, active means activation above about 40%; inconclusive means no clear call, values can overlap the other calls; inactive means below that. This is one part of a sample in which actives are shown more often than they occur.
Outcome codes: 1.0 for active, 0.0 for inactive

INSERT INTO measurements (smiles_record, class_label) VALUES
  ('C[C@H](CO)N1C[C@H](C)[C@@H](CN(C)S(=O)(=O)c2ccc(Cl)cc2)Oc2ccc(NS(=O)(=O)c3cccs3)cc2CC1=O', 0.0),
  ('O=S(=O)(c1ccc(SCc2ccccc2)nc1)N1CCCCCC1', 0.0),
  ('CC(=O)N[C@@H]1C=C[C@H](CC(=O)NCC2CCCCC2)O[C@H]1CO', 0.0),
  ('Cc1csc(NC(=O)C2=COCCO2)n1', 0.0),
  ('CCC(=O)N1C[C@@H](C)[C@@H](OC)CN(C)C(=O)c2ccc(NC(=O)Nc3ccccc3)cc2OC[C@H]1C', 0.0),
  ('Cc1ccc(S(=O)(=O)N(CC(=O)N/N=C/c2ccc(F)cc2)c2cccc3cccnc23)cc1', 0.0),
  ('CCCNC(=O)N1[C@H](C#N)[C@@H](c2ccccc2)[C@H]1CO', 0.0),
  ('CC(C)Cc1nnc(NC(=O)CCNC(=O)c2ccccc2Cl)s1', 0.0),
  ('COc1ccc(CNC(=O)C[C@H]2CC[C@H](NC(=O)Nc3ccc4c(c3)OCO4)[C@H](CO)O2)cc1', 0.0),
  ('Cc1cccc(S(=O)(=O)N[C@H]2CC[C@@H](CCNS(=O)(=O)c3ccccc3F)O[C@H]2CO)c1', 0.0),
  ('O=C(C[C@H]1CC[C@H]2[C@@H](COC[C@@H](O)CN2CCC(F)(F)F)O1)NCc1ccc2c(c1)OCO2', 0.0),
  ('C[C@@H]1CN([C@@H](C)CO)C(=O)c2cc(NC(=O)C3CCCCC3)ccc2O[C@@H](C)CCCCO[C@H]1CN(C)C(=O)Nc1ccc2c(c1)OCO2', 0.0),
  ('CCS(=O)(=O)n1nc(-c2ccccc2)nc1SCc1ccccc1', 1.0),
  ('CCCNC(=O)N(C)C[C@H]1Oc2ncc(C#C[C@@H](C)O)cc2C(=O)N([C@@H](C)CO)C[C@@H]1C', 0.0),
  ('COCC#Cc1cnc2c(c1)C(=O)N([C@@H](C)CO)C[C@@H](C)[C@H](CN(C)C(=O)Nc1ccccc1OC)O2', 0.0),
  ('NS(=O)(=O)c1ccc2nc(NC(=O)C3=COCCO3)sc2c1', 0.0),
  ('Cc1ccc(/C=N/NC(=O)c2sccc2OCc2ccc(F)cc2)cc1', 1.0),
  ('CN(C)C(=O)c1cccc(-c2ccc3c(c2)[C@H]2[C@H](CCN2C(=O)Cc2ccccc2)[C@H](CO)N3)c1', 0.0),
  ('Cc1ccc(-c2csc(NC(=O)c3cccs3)n2)cc1', 1.0),
  ('COc1ccc(-n2c(SC)nc(O)cc2=O)cc1', 0.0),
  ('COc1ccc(OCc2cc(C(=O)NCC3(C)COC3)no2)c(Cl)c1', 1.0),
  ('CCOc1cccc(C(=O)Nc2cnn(Cc3ccccc3)c2)c1', 0.0),
  ('Cc1ccc(-c2csc(NC(=O)Cc3cccs3)n2)cc1C', 1.0),
  ('O=C(COc1ccc([N+](=O)[O-])cc1Cl)Nn1cnnc1', 0.0),
  ('C=CCn1c(SCc2ccccc2)nc2c1c(=O)[nH]c(=O)n2C', 0.0),
  ('COc1cccc(-c2cnc3c(c2)C(=O)N([C@H](C)CO)C[C@H](C)[C@H](CN(C)C(=O)NC(C)C)O3)c1', 0.0),
  ('Cc1ccc(-c2csc(N(Cc3ccco3)C(=O)c3cccs3)n2)cc1', 0.0),
  ('CCCNC(=O)N1[C@H](CNC(=O)c2cccc(F)c2)[C@H](c2ccccc2)[C@@H]1CO', 0.0),
  ('CCCC(=O)Nc1nc2ccc(NC(=O)c3c(F)c(F)c(OC)c(F)c3F)cc2s1', 0.0),
  ('COc1ccc(-c2cc(C(=O)NCCCN3CCOCC3)no2)cc1', 0.0),
  ('COCCN1CCN(C(=O)c2cc(COc3ccc(F)cc3Cl)on2)CC1', 0.0),
  ('CCc1cc2c(=O)c(-c3nc4ccccc4n3C)c(CCCC(=O)O)oc2cc1OC(=O)C(C)(C)C', 0.0),
  ('CC(=O)N1[C@@H](CO)[C@@H]2c3ccccc3N(S(=O)(=O)c3ccccc3)C[C@@H]21', 0.0),
  ('C[C@H](NC(=O)C[C@@H]1CC[C@@H]2[C@H](COC[C@@H](O)CN2C(=O)Nc2cc(Cl)cc(Cl)c2)O1)c1ccccc1', 0.0),
  ('CN1C(=O)c2cc(NC(=O)Nc3ccccc3Cl)ccc2OC[C@H]2O[C@@H](CC(=O)O)CC[C@H]21', 0.0),
  ('CCC(=O)N(C)C[C@@H]1Oc2ncc(/C=C/c3ccccc3)cc2C(=O)N([C@@H](C)CO)C[C@H]1C', 0.0),
  ('CSc1ccccc1OCc1cc(C(=O)N(C)CCc2c(C)n[nH]c2C)no1', 0.0),
  ('CCS(=O)(=O)n1nc(-c2ccc(OC)cc2)nc1SC', 1.0);
